This collection of values is drawn from ChEMBL document CHEMBL1201862.

- system: UniProtKB Q6QLK5
- Sequence (Q6QLK5 whole entry, the tested form may be a part): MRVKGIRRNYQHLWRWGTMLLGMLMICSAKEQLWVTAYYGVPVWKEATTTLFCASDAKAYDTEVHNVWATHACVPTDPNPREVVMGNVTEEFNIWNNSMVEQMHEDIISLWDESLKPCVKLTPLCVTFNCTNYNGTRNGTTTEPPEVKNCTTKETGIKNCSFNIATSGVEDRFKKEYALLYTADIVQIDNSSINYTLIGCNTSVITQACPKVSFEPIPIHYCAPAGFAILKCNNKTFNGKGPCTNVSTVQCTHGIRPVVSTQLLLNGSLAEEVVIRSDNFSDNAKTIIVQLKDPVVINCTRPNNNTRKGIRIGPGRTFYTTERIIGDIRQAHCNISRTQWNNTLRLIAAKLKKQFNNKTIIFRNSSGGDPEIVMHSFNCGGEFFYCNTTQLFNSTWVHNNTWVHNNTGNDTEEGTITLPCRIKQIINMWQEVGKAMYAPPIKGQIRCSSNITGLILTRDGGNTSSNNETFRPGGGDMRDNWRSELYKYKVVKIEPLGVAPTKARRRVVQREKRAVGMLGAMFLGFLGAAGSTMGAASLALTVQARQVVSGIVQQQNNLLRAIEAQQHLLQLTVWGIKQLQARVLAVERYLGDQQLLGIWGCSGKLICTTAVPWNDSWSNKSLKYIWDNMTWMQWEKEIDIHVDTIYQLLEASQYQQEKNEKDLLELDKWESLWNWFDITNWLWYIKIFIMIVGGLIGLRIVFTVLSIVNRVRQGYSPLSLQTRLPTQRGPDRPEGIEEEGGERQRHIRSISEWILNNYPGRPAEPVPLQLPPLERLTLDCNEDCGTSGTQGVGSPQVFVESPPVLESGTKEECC
- experimentDescription: inhibitors of HIV fusion peptide binding, primary screen, biochemical, uHTS, fluorescence dequenching (AID 1986)
Activity calls are given as the source filed them. Rule as the data show it: actives have a measured IC50 and inactives only a lower limit.
Listed molecules paired with reported IC50
measuredAttribute: IC50

{"structureNotation": "O=C(O)CN1C(=O)/C(=C\\c2cc(Br)ccc2OCc2ccc([N+](=O)[O-])cc2)SC1=S", "measuredAttribute": "IC50", "result": "10.1 µM (active)"}
{"structureNotation": "Cc1c(CC(=O)O)c(=O)oc2c(C)c3occ(-c4ccc(Br)cc4)c3cc12", "measuredAttribute": "IC50", "result": "27.6 µM (active)"}
{"structureNotation": "CC(C)(C)c1cc(-c2csc(Nc3ccccc3)[n+]2Cc2ccc(C(=O)O)cc2)cc(C(C)(C)C)c1O", "measuredAttribute": "IC50", "result": "12.9 µM (active)"}
{"structureNotation": "Cc1cc(/C=C2\\C(=N)N3N=C(S(C)(=O)=O)SC3=NC2=O)c(C)n1Cc1ccccc1", "measuredAttribute": "IC50", "result": "26.2 µM (active)"}
